- METHOD_DESCRIPTION: Selectivity index, ratio of CC50 for mouse RAW264.7 cells to IC50 for Leishmania amazonensis promastigotes infected in mouse RAW264.7 cells
- Type: toxicity, cell-based
- EXPERIMENTAL_CONTEXT: read-out: Ratio CC50/IC50
EXPERIMENTAL_READOUT: selectivity ratio
Lab note: record the figure alone, no unit after it.

{"MOLECULE": "CCCCCCCCCCCCCCCCOP(=O)([O-])OCC[N+](C)(C)C [MILTEFOSINE]", "selectivity ratio": 4.2}

# evaluate next
Please look up its selectivity ratio: O=C(N/N=C/c1ccc(O)c(O)c1)c1nc2ccccc2[nH]1 0.09
